Measured IC50, listed per entry for reference.
Assay system: AChE from Electrophorus electricus (electric eel) (Electrophorus electricus)
Sequence (O42275 24-633): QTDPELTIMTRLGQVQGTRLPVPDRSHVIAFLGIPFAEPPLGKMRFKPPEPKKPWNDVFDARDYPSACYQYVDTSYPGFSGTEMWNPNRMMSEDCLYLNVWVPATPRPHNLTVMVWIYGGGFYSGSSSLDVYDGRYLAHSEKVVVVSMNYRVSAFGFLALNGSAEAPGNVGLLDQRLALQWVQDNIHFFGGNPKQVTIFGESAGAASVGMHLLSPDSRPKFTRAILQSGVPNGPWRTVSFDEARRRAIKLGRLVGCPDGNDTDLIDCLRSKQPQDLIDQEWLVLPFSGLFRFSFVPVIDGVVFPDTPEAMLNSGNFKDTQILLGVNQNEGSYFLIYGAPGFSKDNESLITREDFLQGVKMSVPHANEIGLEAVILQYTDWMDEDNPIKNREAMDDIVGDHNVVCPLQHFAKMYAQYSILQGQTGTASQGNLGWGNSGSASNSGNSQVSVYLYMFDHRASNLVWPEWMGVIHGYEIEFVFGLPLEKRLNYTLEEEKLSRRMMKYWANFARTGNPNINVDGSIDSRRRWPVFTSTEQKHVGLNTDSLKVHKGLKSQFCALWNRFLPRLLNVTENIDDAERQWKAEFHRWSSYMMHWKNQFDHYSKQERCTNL
Assay method text: Ellman AChE inhibition and kinetics in HSA matrix
Format: biochemical
Return type: number; implicit unit nM.

Chemical structure	Assay system	Measurement units	IC50
N#Cc1coc2ccccc2c1=O	AChE from Electrophorus electricus (electric eel) (Electrophorus electricus)	nM	113

// next entry
Exercise: In one line, give reported IC50 of the entry Cc1cc(=O)c2ccc(N)cc2o1 .
Key: 115

Data provenance: paper PMC6637216
